Test system: EAE mice
Experiment: Rotarod behavioral assay in EAE mice
Assay type: in vivo, mouse
Design: key: Rotarod performance: ‘+’ indicate marker was significantly (p ≤ 0.05) increased in treatment group relative to vehicle; ‘−’ indicates marker was significantly (p ≤ 0.05) decreased in treatment group relative to vehicle; ○: ‘o’ indicate marker did not change relative to vehicle
Settings: Post (therapeutic, postEAE) treatment of EAE mice, vs vehicle
quantity_measured: Disability: Rotarod performance

[
  {
    "compound": "Cc1cc(O)ccc1-n1nc2ccc(O)cc2c1Cl",
    "meas_value": "+"
  },
  {
    "compound": "Oc1ccc(-n2nc3ccc(O)cc3c2Cl)cc1",
    "meas_value": "○"
  },
  {
    "compound": "Oc1ccc(-n2nc3ccc(O)cc3c2Cl)c(Cl)c1",
    "meas_value": "+"
  },
  {
    "compound": "C[C@]12CC[C@@H]3c4ccc(O)cc4CC[C@H]3[C@@H]1CC[C@@H]2O [E2, 170 estradiol]",
    "meas_value": "○"
  }
]
